Hey, just so you know, these numbers are from patent US10508088B2.

Molecular target: HDAC5 (Homo sapiens (Human))
Sequence (Q9UQL6 whole entry): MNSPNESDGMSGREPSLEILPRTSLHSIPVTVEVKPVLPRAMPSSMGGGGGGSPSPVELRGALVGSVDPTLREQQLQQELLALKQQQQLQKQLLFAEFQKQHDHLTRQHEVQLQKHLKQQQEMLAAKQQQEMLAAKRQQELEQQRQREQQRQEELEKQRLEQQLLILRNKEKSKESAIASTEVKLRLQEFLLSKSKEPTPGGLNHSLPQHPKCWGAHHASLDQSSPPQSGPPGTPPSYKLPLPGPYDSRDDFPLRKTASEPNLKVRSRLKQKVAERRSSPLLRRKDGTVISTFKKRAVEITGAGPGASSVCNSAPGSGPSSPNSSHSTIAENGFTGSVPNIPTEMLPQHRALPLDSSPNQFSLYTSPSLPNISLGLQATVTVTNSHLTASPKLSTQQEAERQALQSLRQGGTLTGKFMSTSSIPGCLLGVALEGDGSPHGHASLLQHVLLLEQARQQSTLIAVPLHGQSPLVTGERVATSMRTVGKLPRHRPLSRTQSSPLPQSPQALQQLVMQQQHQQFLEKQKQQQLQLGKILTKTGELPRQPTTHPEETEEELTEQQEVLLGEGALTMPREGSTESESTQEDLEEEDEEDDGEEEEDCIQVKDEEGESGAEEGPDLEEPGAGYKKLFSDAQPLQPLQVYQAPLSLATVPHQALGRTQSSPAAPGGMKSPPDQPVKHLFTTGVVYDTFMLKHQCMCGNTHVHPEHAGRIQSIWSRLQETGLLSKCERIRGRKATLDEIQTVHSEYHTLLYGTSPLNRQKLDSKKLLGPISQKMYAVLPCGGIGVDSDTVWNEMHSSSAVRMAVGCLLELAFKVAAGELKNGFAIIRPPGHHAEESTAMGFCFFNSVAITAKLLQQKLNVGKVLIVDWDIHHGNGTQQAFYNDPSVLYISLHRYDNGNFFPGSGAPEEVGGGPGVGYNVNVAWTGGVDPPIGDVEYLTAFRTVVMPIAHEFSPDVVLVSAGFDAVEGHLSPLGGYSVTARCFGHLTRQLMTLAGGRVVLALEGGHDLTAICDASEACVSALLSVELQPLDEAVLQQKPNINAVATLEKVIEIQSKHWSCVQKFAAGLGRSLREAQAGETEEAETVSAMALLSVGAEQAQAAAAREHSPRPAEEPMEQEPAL
outcomeMeasure: IC50

Identify the measured IC50 of O=C(NO)c1cccc2c1C[C@]1(CCN(Cc3ccc(Cl)c(C(F)(F)F)c3)C1=O)C2 for HDAC5 (Homo sapiens (Human)).
> 10 µM

Another molecule to check: O=C(NO)c1cccc(Nc2nc3cc(Cl)c(Cl)cc3o2)c1
> 10 µM

====

Molecular target: Full length human recombinant HDAC11 (Homo sapiens (Human), UniProt Q96DB2)
Assay: Enzymatic HDAC11 assay, electrophoretic mobility shift
Details: substrate FAM-RHKK(tri-fluor-Ac)-NH2, read-out: HDAC11 IC50 Range
pIC50: −log10 of the molar value.
outcomeMeasure: pIC50

Recorded pIC50 for O=C(NO)c1cccc2c1C[C@@]1(CCN(Cc3ccc(Cl)c(C(F)(F)F)c3)C1=O)C2 , please?
> 6.30

Another molecule to check: O=C(NO)c1cccc2c1OC1(CC2)CCN(C(=O)Cc2ccccc2)CC1
< 6.00

Another molecule to check: O=C(NO)c1cccc2c1CC1(CCN(Cc3ccccc3)CC1)C2
< 6.00

Another molecule to check: O=C(NO)c1cccc2c1OC1(CC2)CCN(c2ccc(C(F)(F)F)cn2)CC1
< 6.00

Another molecule to check: O=C(NO)c1cccc2c1CC1(CCN(Cc3ccc(Cl)c(Cl)c3)C1=O)C2 (stereo not drawn)
> 6.30

Another molecule to check: CN(C)C(=O)N1CCC2(CCc3cccc(C(=O)NO)c3O2)CC1
< 6.00

Another molecule to check: O=C(NO)c1cccc2c1CC1(CC2)CCN(c2ccc(C(F)(F)F)cc2)C1=O (stereo not drawn)
6.00 to 6.30

Another molecule to check: O=C(NO)c1cccc2c1CC1(CCN(C(=O)c3ccc(C(F)(F)F)cc3)C1)C2 (stereo not drawn)
< 6.00

Another molecule to check: O=C(NO)c1cccc2c1CC1(CC2)CCN(Cc2ccc(C(F)(F)F)c(F)c2)C1=O (stereo not drawn)
> 6.30

====

Target: Recombinant N-terminal GST tag full-length human HDAC11 (Homo sapiens (Human))
Sequence (Q96DB2 whole entry): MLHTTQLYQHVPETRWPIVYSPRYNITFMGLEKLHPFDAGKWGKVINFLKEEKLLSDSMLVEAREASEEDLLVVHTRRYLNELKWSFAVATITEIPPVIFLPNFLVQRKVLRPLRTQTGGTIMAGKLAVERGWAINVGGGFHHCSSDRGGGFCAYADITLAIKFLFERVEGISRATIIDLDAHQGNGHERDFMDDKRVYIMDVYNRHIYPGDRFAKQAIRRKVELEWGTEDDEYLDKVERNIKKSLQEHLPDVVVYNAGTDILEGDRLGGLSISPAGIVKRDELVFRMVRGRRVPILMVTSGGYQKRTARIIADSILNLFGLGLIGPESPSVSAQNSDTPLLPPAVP
Experiment: Probe binding HDAC11 assay, time resolved fluorescence (TRF)
Settings: read-out: HDAC11 IC50 Range
outcomeMeasure: IC50

Recorded IC50 for NS(=O)(=O)c1ccc2[nH]c(Nc3cccc(C(=O)NO)c3)nc2c1 , please?
> 1000 nM

Another compound to check: O=C(NO)c1cccc(Nc2nc3cc(Cl)c(Cl)cc3[nH]2)c1
< 500 nM

Another compound to check: O=C(NO)c1cccc(Nc2nc3cc(F)c(Br)cc3[nH]2)c1
< 500 nM

Another compound to check: O=C(NO)c1cccc(Nc2nc3ncc(C(F)(F)F)cc3o2)c1
< 500 nM

Another compound to check: CN(c1cccc(C(=O)NOC(=O)NCc2ccccc2)c1)c1nc2cc(C#N)c(C(F)(F)F)cc2[nH]1
> 1000 nM

Another compound to check: O=C1COc2cc3[nH]c(Nc4cccc(C(=O)NO)c4)nc3cc2N1
> 1000 nM

Another compound to check: N#Cc1cc2oc(Nc3cccc(C(=O)NO)c3)nc2cc1C(F)(F)F
< 500 nM

Another compound to check: O=C(NO)c1cccc(Nc2nc3ccccc3[nH]2)c1
> 1000 nM

Another compound to check: O=C(NO)c1cccc(Nc2nc3cc4c(cc3[nH]2)OCO4)c1
> 1000 nM

Another compound to check: N#Cc1cc2nc(Nc3cccc(C(=O)NO)c3)n(CCCCCN)c2cc1C(F)(F)F
< 500 nM

Another compound to check: Cn1c(Nc2cccc(C(=O)NO)c2)nc2cc(C(F)(F)F)c(-c3ccccc3)cc21
< 500 nM

Another compound to check: CC(C)n1c(Nc2cccc(C(=O)NO)c2)nc2cc(-c3ccccc3)c(C(F)(F)F)cc21
< 500 nM

Another compound to check: CSc1ccc(-c2cc3[nH]c(Nc4cccc(C(=O)NO)c4)nc3cc2C(F)(F)F)cc1
< 500 nM

Another compound to check: O=C(NO)c1cccc(Nc2nc3cc(C(F)(F)F)c(-c4ccccc4CO)cc3[nH]2)c1
< 500 nM

Another compound to check: CC(C)n1c(Nc2cccc(C(=O)NO)c2)nc2cc(C#N)c(C(F)(F)F)cc21
< 500 nM

Another compound to check: O=C(NO)c1cccc(Nc2nc3cc4c(cc3[nH]2)OCCO4)c1
500 to 1000 nM

Another compound to check: NCCCCCn1c(Nc2cccc(C(=O)NO)c2)nc2cc(Cl)c(Cl)cc21
< 500 nM

Another compound to check: O=C(NO)c1ccnc(Nc2nc3cc(Cl)c(Cl)cc3o2)c1
< 500 nM

Another compound to check: O=C(NO)c1cccc(Nc2nc3cc(Cl)c([N+](=O)[O-])cc3[nH]2)c1
< 500 nM

Another compound to check: O=C(NO)c1cccc(Nc2nc3cc(F)c(F)cc3[nH]2)c1
500 to 1000 nM

Another compound to check: COc1cc2nc(Nc3cccc(C(=O)NO)c3)[nH]c2cc1Cl
500 to 1000 nM

Another compound to check: Cn1c(Nc2cccc(C(=O)NO)c2)nc2cc(C#N)c(C(F)(F)F)cc21
< 500 nM

Another compound to check: COCCn1c(Nc2cc(C(=O)NO)c3ccccc3c2)nc2ccccc21
> 1000 nM

Another compound to check: O=C(NO)c1cccc(Nc2nc3cc(F)c(C(F)(F)F)cc3[nH]2)c1
< 500 nM

Another compound to check: CN(C)C(=O)c1ccc(-c2cc3[nH]c(Nc4cccc(C(=O)NO)c4)nc3cc2C(F)(F)F)cc1
< 500 nM

Another compound to check: O=C(NO)c1cccc(Nc2nc3cc(C(F)(F)F)c(-c4ccc5ncccc5c4)cc3[nH]2)c1
< 500 nM

Another compound to check: O=C(NO)c1cccc(Nc2cc3cc(Cl)c(Cl)cc3[nH]2)c1
< 500 nM

Another compound to check: COCCn1c(Nc2cccc(C(=O)NO)c2)nc2cc(C#N)c(C(F)(F)F)cc21
< 500 nM

Another compound to check: CN(c1cccc(C(=O)NO)c1)c1nc2cc(C(F)(F)F)c(-c3ccccc3)cc2n1C
500 to 1000 nM

Another compound to check: O=C(NO)c1cccc(Nc2nc3cc(Cl)c(Cl)cc3o2)n1
< 500 nM

Another compound to check: COc1cc2nc(Nc3cccc(C(=O)NO)c3)[nH]c2cc1OC
> 1000 nM

Another compound to check: CS(=O)(=O)c1cc2nc(Nc3cccc(C(=O)NO)c3)[nH]c2cc1C#N
500 to 1000 nM

Another compound to check: O=C(NO)c1cccc(Nc2nc3cc4c(cc3[nH]2)OCCCO4)c1
> 1000 nM

Another compound to check: CN(C)C(=O)c1cccc(-c2cc3[nH]c(Nc4cccc(C(=O)NO)c4)nc3cc2C(F)(F)F)c1
< 500 nM
